Measured OD450 at 0.1 nM, listed per entry for reference.
target: T1, human MSLN-R3-his protein (human, UniProt Q13421 487-598); assay: ELISA, coated MSLN-R3
T1 construct: Region 3 of human MSLN, His-tagged; also called human MSLN-R3 protein; hMSLN-R3-his; not shown: His tag
T1 sequence (Q13421 495-606): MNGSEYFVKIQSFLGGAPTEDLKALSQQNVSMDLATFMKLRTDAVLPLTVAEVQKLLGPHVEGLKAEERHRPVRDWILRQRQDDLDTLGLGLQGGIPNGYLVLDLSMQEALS
Dear colleague, please return just the value in OD450, with no unit written.

Take a look at these entries with their results.
>  <binder>
S009-F1.2.12 (antibody, human IgG1, kappa, V domains shown) VH: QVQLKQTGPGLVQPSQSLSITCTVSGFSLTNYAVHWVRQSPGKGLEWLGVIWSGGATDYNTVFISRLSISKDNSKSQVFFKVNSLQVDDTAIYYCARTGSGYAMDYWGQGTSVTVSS VL: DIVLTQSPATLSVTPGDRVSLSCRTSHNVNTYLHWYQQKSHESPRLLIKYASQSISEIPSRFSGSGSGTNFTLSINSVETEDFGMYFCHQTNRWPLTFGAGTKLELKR

>  <endpoint>
OD450 at 0.1 nM

>  <test-value>
0.05

$$$$
>  <binder>
S009-F1.57.1 (antibody, human IgG1, kappa, V domains shown, Human-murine chimeric antibody, human IgG1/kappa constant regions) VH: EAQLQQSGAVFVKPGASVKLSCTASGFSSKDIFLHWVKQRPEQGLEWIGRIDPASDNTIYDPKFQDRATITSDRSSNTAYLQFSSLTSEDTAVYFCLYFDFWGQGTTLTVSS VL: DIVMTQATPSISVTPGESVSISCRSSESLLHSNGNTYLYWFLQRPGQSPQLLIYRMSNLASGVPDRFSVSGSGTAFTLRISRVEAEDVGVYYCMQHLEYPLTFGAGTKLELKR

>  <endpoint>
OD450 at 0.1 nM

>  <test-value>
0.19

$$$$

Continue with the next binder.
Reported OD450 at 0.1 nM ( S009-F1.25.10 (antibody, human IgG1, kappa, V domains shown, Human-murine chimeric antibody, human IgG1/kappa constant regions) VH: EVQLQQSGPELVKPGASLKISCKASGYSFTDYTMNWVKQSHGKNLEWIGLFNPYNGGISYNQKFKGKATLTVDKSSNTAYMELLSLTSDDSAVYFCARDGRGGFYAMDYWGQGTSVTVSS VL: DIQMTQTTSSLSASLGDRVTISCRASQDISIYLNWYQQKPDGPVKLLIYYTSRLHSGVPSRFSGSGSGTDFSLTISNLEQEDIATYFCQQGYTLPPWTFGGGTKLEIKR ) = 0.34
